measurementTarget: K^b molecules (Mus musculus, UniProt P01901)
Sequence (P01887 21-119): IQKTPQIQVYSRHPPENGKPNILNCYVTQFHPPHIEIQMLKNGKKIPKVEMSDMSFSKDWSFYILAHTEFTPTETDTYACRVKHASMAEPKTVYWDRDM
Sequence (P01901 22-369): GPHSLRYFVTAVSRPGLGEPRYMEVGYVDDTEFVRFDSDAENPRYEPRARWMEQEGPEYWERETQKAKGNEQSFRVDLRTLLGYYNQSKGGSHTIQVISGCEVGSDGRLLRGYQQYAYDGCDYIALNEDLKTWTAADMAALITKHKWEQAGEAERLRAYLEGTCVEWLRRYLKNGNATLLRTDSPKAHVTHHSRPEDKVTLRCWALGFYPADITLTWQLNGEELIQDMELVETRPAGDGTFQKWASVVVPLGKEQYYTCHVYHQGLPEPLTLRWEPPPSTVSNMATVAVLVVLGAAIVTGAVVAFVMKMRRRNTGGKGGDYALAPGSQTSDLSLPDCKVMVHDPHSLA
Format: binding, murine
Where no end group is shown, it is not given here.
propertyLabel: log10 IC50 (log10 of the value in nM)
Please be aware that the numbers have been log10-transformed from IC50 in nM.

Prompt: Can you share its log10 IC50? I mean this sequence: AAAAAFAAL [AAAAAFAAL]
Completion: 2.79

Prompt: Can you share its log10 IC50? I mean this sequence: AIIAAFAAL [AIIAAFAAL]
Completion: 1.00

Prompt: Can you share its log10 IC50? I mean this sequence: AAIAAFAAL [AAIAAFAAL]
Completion: 1.95

Prompt: Can you share its log10 IC50? I mean this sequence: SSSSFSSL [SSSSFSSL]
Completion: 2.71

Prompt: Can you share its log10 IC50? I mean this sequence: AAAAFAAL [AAAAFAAL]
Completion: 1.88

Prompt: Can you share its log10 IC50? I mean this sequence: AIAAAFAAL [AIAAAFAAL]
Completion: 2.38

Prompt: Can you share its log10 IC50? I mean this sequence: GGGGFGGL [GGGGFGGL]
Completion: 4.72
